Provide the recorded log10 IC50 for the entries that follow.
- study_system: PAR2 (Homo sapiens (Human))
- assay_procedure: IP-One HTRF assay for PAR2 antagonist activity (IP1 production)
- Format: cell-based
- test_parameters: 1321N1 cells stably expressing human PAR2; agonist SLIGRL-NH2; read-out: hPAR2 IPpone IC50
Values are log10 of IC50 in µM.

                                   molecule  reported_property  value_observed
0  OC(c1ncc[nH]1)c1ccc(F)cc1C1CCCC1 (centres unmarked) [Example 6]         log10 IC50            0.70
1  OC(c1ncc[nH]1)c1ccc(F)cc1-c1cocn1 (centres unmarked) [Example 32]         log10 IC50            1.16
2  OC(c1ncc[nH]1)c1ccc(F)c2occ(C3CC3)c12 (single isomer, unassigned) [Example 45]         log10 IC50           -0.20
3  OC(c1ncc[nH]1)c1ccc(F)c2ccc(Cl)n12 (centres unmarked) [Example 61]         log10 IC50            0.28
4  CCn1ccc2c(F)ccc(C(O)c3ncc[nH]3)c21 (centres unmarked) [Example 57]         log10 IC50            0.22
5  OC(c1ncc[nH]1)c1ccc(F)c2occ(C3CC3)c12 (single isomer, unassigned) [Example 44]         log10 IC50            0.82
6  OC(c1ncc[nH]1)c1ccc(F)cc1N1CCC1 (centres unmarked) [Example 20]         log10 IC50            0.65
7  OC(c1ncc[nH]1)c1ccc(F)c2occ(C3CC3)c12 (centres unmarked) [Example 43]         log10 IC50           -0.07
8  OC(c1ncc[nH]1)c1ccc(F)cc1N1CC[C@H](F)C1 (some centres unmarked) [Example 26]         log10 IC50            0.59
9  CCCc1c(C(O)c2ncc[nH]2)ccc(F)c1F (single isomer, unassigned) [Example 12]         log10 IC50            0.60

For each of the molecules below, note its log10 IC50.
1. OC(c1ncc[nH]1)c1ccc(F)cc1C1=CCCC1 (centres unmarked) [Example 5]
2. CCCc1c(C(O)c2ncc[nH]2)ccc(F)c1F (centres unmarked) [Example 10]
3. CC1(F)CN(c2cc(F)ccc2C(O)c2ncc[nH]2)C1 (centres unmarked) [Example 24]
4. Cc1ccc2c(F)ccc(C(O)c3ncc[nH]3)n12 (centres unmarked) [Example 37]
5. CC1CN(c2cc(F)ccc2C(O)c2ncc[nH]2)C1 (centres unmarked) [Example 25]
6. OC(c1ncc[nH]1)c1ccc(F)cc1C1CCC1 (centres unmarked) [Example 7]
7. OC(c1ncc[nH]1)c1ccc(F)cc1N1CC=CC1 (centres unmarked) [Example 17]
8. OC(c1ncc[nH]1)c1ccc(F)c(F)c1-n1cccn1 (centres unmarked) [Example 22]

Result block:
[0.71, 0.22, 0.83, -0.01, 0.84, 1.06, 0.02, 0.66]

###

- study_system: PAR2 (Homo sapiens (Human))
- assay_procedure: Trypsin activated FLPR Ca2+ mobilization assay for PAR2 antagonist activity
- Format: cell-based
- test_parameters: 1321N1 cells stably expressing human PAR2; agonist Trypsin; Vorapaxar present to block PAR1; read-out: hPAR2 FLPR (Trypsin) IC50
reported_property: IC50 (µM)
One number for each entry, in µM.

Completed entries (count: 3):
>>> print(df.to_string())
                                   compound  unit_tag  value_observed
0  OC(c1ncc[nH]1)c1ccccc1C1=CCCC1 (stereo not shown) [Example 4]        µM            16.6
1  OC(c1ncc[nH]1)c1ccc(F)cc1N1CCC(F)(F)C1 (stereo not shown) [Example 28]        µM            30.3
2  C/C=C\c1cc(F)ccc1C(O)c1ncc[nH]1 (stereo not shown) [Example 9]        µM            6.26

For each of the compounds below, note its IC50.
1. CCCc1cc(F)ccc1[C@H](O)c1ncc[nH]1 [Example 3]
2. OC(c1ncc[nH]1)c1ccc(F)c2occ(C3CC3)c12 (single isomer, unassigned) [Example 45]
3. OC(c1ncc[nH]1)c1ccc(F)c2ccc(Cl)n12 (stereo not shown) [Example 61]

Result block:
1. 3.92
2. 6.07
3. 3.1

###

- study_system: PAR2 (Homo sapiens (Human), UniProt P55085)
- Sequence (P55085 26-397): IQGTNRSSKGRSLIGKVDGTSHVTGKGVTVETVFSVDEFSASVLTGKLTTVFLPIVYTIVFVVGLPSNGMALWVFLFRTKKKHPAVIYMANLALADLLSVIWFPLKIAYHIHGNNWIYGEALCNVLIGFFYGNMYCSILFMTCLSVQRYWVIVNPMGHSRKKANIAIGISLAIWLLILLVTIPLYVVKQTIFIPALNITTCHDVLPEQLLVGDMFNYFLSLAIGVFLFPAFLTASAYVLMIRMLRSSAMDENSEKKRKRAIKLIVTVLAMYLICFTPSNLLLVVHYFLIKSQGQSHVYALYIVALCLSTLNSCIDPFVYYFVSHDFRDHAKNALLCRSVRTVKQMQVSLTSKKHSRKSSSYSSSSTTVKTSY
- assay_procedure: IP-One HTRF assay for PAR2 antagonist activity (IP1 production)
- Assay type: cell-based
- test_parameters: hPAR2 IPpone IC50 (μM), 1321N1 cells stably expressing human PAR2; agonist SLIGRL-NH2
Label Fulfilled when IC50 is strictly below 5 µM; otherwise label Not fulfilled.

Observe how each entry below is paired with its result.
>>> df
                                   compound                              study_system  class_assignment
0  CCc1coc2c(F)ccc(C(O)c3ncc[nH]3)c12 (stereo not shown)  PAR2 (Homo sapiens (Human), UniProt P55085)         Fulfilled
1  OC(c1ncc[nH]1)c1ccc(F)c2ccc(C3CC3)n12 (stereo not shown)  PAR2 (Homo sapiens (Human), UniProt P55085)     Not fulfilled
2  CCCc1c(Cl)cccc1C(O)c1ncc[nH]1 (stereo not shown)  PAR2 (Homo sapiens (Human), UniProt P55085)     Not fulfilled
3  CCc1coc2c(F)ccc([C@H](O)c3ncc[nH]3)c12 (single isomer, unassigned)  PAR2 (Homo sapiens (Human), UniProt P55085)         Fulfilled
4  OC(c1ncc[nH]1)c1ccc(F)cc1N1CC2CC2C1 (stereo not shown)  PAR2 (Homo sapiens (Human), UniProt P55085)         Fulfilled

Query block: Identify whether the compound CC(C)c1ccc2c(F)ccc(C(O)c3ncc[nH]3)n12 (stereo not shown) records IC50 below 5 µM.
Result block: Fulfilled

Query block: Identify whether the compound CCc1coc2c(F)ccc([C@@H](O)c3ncc[nH]3)c12 (single isomer, unassigned) records IC50 below 5 µM.
Result block: Not fulfilled

###

Provide the recorded pIC50 for the entries that follow.
- study_system: PAR2 (Homo sapiens (Human), UniProt P55085)
- assay_procedure: IP-One HTRF assay for PAR2 antagonist activity (IP1 production)
- Format: cell-based
- test_parameters: 1321N1 cells stably expressing human PAR2; agonist SLIGRL-NH2; read-out: hPAR2 IPpone IC50
- Procedure: Protocol for Testing Compounds for PAR2 Antagonist Activity Using an IP-One HTRF Assay Inositol monophosphate (IP1) production were measured in 1321N1 cells stably expressing human PAR2 using an IP-One HTRF assay kit (Cisbio). […] After 60 min at 37° C. cells were lysed and IP1 concentrations were detected according to the manufacturers protocol (Cisbio). Data were normalized to IP1 concentrations using a IP1 standard curve according to the manufacturers protocol (Cisbio).
Answers are plain numbers, as −log10 of the molar value.

In [3]: df
Out[3]:
                                   compound  reported_property  value_observed
0  OC(c1ncc[nH]1)c1cccc(Cl)c1-n1cccn1 (stereo not drawn)              pIC50            5.19

For each of the compounds below, note its pIC50.
1. OC(c1ncc[nH]1)c1ccc(F)cc1N1CC[C@@H](F)C1 (stereo partly drawn)
2. OC(c1ncc[nH]1)c1ccc(F)cc1-n1cccn1 (stereo not drawn)
3. OC(c1ncc[nH]1)c1ccc(F)cc1N1CC=CC1 (single isomer, unassigned) [Example 18]

Result block:
[5.16, 5.14, 6.05]

For each of the compounds below, note its pIC50.
1. OC(c1ncc[nH]1)c1ccc(F)cc1N1CCC(F)(F)C1 (stereo not drawn)
2. OC(c1ncc[nH]1)c1ccc(F)cc1N1CC=CC1 (single isomer, unassigned) [Example 19]
3. OC(c1ncc[nH]1)c1ccccc1C1=CCCC1 (stereo not drawn)
4. Cn1ncc2c(F)ccc(C(O)c3ncc[nH]3)c21 (stereo not drawn)
5. OC(c1ncc[nH]1)c1ccc(F)cc1C12CCCC1C2 (stereo not drawn)

Result block:
1. 5.31
2. 4.03
3. 5.20
4. 5.47
5. 5.36

###

- study_system: PAR2 (Homo sapiens (Human), UniProt P55085)
- assay_procedure: Trypsin activated FLPR Ca2+ mobilization assay for PAR2 antagonist activity
- Assay type: cell-based
- test_parameters: hPAR2 FLPR (Trypsin) IC50 (μM)
Provide the recorded IC50 for the entries that follow.
Numbers only, in µM.

>>> print(df.to_string())
                                   compound                              study_system  value_observed
0  OC(c1ncc[nH]1)c1ccc(F)cc1N1CCCC1 (single isomer, unassigned) [Example 16]  PAR2 (Homo sapiens (Human), UniProt P55085)            10.1
1  OC(c1ncc[nH]1)c1ccc(F)cc1-c1cscn1 (stereo not shown) [Example 33]  PAR2 (Homo sapiens (Human), UniProt P55085)            16.8

--- query ---
Noted for OC(c1ncc[nH]1)c1ccc(F)cc1N1CCCC1 (stereo not shown) [Example 14] : its IC50 reads 16.9

Source: patent US10550089B2
